Target: T1, PKC-ζ (purified isoform) (Homo sapiens (Human), UniProt Q05513 1-592)
T1 construct: also called PKC-zeta; PKCzeta
T1 sequence: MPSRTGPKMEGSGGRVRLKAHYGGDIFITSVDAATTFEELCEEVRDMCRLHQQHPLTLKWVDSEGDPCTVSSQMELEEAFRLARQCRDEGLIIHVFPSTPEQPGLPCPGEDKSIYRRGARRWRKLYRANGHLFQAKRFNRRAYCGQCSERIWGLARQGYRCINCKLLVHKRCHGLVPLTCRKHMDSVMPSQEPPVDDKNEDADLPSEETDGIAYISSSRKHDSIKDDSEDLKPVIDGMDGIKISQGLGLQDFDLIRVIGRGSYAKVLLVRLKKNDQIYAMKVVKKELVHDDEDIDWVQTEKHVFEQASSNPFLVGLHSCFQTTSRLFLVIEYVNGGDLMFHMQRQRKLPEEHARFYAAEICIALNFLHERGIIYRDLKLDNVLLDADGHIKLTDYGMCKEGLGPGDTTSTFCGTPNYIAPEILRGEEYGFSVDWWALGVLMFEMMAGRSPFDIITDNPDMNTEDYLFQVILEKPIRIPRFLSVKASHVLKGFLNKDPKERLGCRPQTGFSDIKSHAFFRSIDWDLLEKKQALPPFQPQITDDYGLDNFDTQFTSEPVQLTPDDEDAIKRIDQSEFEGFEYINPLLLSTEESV
Experiment: competitive ELISA on purified PKC-ζ vs anti-PKC-ζ Ab; PRE 200 µM
Method: Greiner 96 well ELISA plates were coated with the appropriate PKC isoform diluted in PBSN (PBS with Calcium/Magnesium+0.05% Sodium azide w/w). 50 μL/well at 250 ng/mL was used. Control wells contained PBSN only. Plates were incubated overnight at 4° C. The plates were washed 3 times with 200 μL of dH₂O per well, then 100 μL of blocking solution was added per well and the plate incubated for 1 h at 37° C. […]
Measured binding capacity (%) accompanies every entry in the list below.

{"Binder": "Ac-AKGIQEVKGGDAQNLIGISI-NH2 (Synthetic peptide; also called peptide PRE 3) [PRE 3]", "binding capacity (%)": "29.1%"}

Here's the next entry for you.
[ask] Answer with the recorded binding capacity (%) of Ac-RDAQNLIGISI-NH2 (Synthetic peptide; also called peptide PRE 11) [PRE 11] only.
[reply] 0%

Reference source for all entries: patent US20100041597A1
